- Tested on: CD4+ T-cells and dendritic cells
- TEST_NAME: I-MUNE assay: CD4+ T-cell proliferation to 15-mer peptide sets presented by dendritic cells
- Format: cell-based, human
- Parameters: scale not given here
- RUN_CONDITIONS: Table 3; Stanford and Sacramento donors
QUANTITY_MEASURED: Structure Value
Please give the numeric answer without any surrounding text.

Report Structure Value, nothing else, for this molecule: BPN′ Y217L: B. amyloliquifaciens subtilisin BPN′ Y217L, Swissprot accession number P00782 (protein, UniProt P00782 108-382, looked up, variant Y217L) Subtilisin BPN': AQSVPYGVSQIKAPALHSQGYTGSNVKVAVIDSGIDSSHPDLKVAGGASMVPSETNPFQDNNSHGTHVAGTVAALNNSIGVLGVAPSASLYAVKVLGADGSGQYSWIINGIEWAIANNMDVINMSLGGPSGSAALKAAVDKAVASGVVVVAAAGNEGTSGSSSTVGYPGKYPSVIAVGAVDSSNQRASFSSVGPELDVMAPGVSIQSTLPGNKYGALNGTSMASPHVAGAAALILSKHPNWTNTQVRSSLENTTTKLGDSFYYGKGLINVQAAAQ 0.65

Report Structure Value, nothing else, for this molecule: B. lentus subtilisin: Bacillus lentus subtilisin, industrial protease, Swissprot accession number P29600 (protein, UniProt P29600 1-269, looked up) Subtilisin Savinase: AQSVPWGISRVQAPAAHNRGLTGSGVKVAVLDTGISTHPDLNIRGGASFVPGEPSTQDGNGHGTHVAGTIAALNNSIGVLGVAPSAELYAVKVLGASGSGSVSSIAQGLEWAGNNGMHVANLSLGSPSPSATLEQAVNSATSRGVLVVAASGNSGAGSISYPARYANAMAVGATDQNNNRASFSQYGAGLDIVAPGVNVQSTYPGSTYASLNGTSMATPHVAGAAALVKQKNPSWSNVQIRNHLKNTATSLGSTNLYGSGLVNAEAATR 0.65

Report Structure Value, nothing else, for this molecule: sTNFR1: soluble tumor necrosis factor receptor 1 (protein, UniProt P19438 30-211, looked up, extracellular domain) extracellular domain: LVPHLGDREKRDSVCPQGKYIHPQNNSICCTKCHKGTYLYNDCPGPGQDTDCRECESGSFTASENHLRHCLSCSKCRKEMGQVEISSCTVDRDTVCGCRKNQYRHYWSENLFQCFNCSLCLNGTVHLSCQEKQNTVCTCHAGFFLRENECVSCSNCKKSLECTKLCLPQIENVKGTEDSGTT 0.47
